Target: MINK1 (human) (UniProt Q8N4C8)
Sequence (Q8N4C8 whole entry, looked up): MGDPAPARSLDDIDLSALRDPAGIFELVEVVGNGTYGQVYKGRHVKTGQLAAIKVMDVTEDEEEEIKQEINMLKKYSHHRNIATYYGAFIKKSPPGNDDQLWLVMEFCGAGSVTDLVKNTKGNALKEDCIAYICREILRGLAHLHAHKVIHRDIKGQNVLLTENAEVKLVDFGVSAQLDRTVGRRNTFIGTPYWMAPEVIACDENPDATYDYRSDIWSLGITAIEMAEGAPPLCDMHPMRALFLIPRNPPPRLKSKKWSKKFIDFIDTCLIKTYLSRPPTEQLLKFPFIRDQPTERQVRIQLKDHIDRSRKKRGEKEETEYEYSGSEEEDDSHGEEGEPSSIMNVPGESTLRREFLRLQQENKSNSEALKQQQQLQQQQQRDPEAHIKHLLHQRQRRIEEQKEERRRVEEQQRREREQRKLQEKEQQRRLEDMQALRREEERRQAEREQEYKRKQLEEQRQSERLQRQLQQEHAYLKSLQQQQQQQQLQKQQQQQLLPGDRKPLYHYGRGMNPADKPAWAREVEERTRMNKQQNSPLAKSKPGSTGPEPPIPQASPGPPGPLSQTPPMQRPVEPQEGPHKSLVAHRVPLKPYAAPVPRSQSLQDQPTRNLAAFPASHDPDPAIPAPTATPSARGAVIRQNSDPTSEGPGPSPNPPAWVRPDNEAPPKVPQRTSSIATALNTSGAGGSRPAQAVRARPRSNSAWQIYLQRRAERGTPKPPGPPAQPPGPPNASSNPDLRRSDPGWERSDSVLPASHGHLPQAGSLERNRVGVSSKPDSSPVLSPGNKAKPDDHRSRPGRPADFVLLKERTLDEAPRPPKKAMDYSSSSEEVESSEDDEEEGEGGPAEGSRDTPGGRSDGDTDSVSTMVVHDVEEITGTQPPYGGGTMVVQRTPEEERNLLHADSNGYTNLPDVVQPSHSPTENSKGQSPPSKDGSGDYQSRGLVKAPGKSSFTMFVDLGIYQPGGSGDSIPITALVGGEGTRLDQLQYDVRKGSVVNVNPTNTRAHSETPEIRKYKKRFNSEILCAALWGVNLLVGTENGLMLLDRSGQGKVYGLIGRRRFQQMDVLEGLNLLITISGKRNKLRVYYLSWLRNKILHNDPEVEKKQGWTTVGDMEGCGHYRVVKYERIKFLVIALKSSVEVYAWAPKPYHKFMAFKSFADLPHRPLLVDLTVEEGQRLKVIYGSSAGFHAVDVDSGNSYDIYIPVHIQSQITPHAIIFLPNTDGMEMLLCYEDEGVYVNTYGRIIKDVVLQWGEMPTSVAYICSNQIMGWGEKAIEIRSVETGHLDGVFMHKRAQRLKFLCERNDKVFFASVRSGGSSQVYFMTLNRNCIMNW
Test: radiometric filter-binding kinase assay, Kinase HotSpot
Conditions: compound 0.5 µM; ATP 10 µM
observed_property: residual activity (%)
The answer is to be given in %; state only the numeric part.

## Task Tell me the measured residual activity of CN([C@@H](Cc1ccc(OS(=O)(=O)c2cccc3cnccc23)cc1)C(=O)N1CCN(c2ccccc2)CC1)S(=O)(=O)c1cccc2cnccc12 , please.
## Result 98.2

## Task Tell me the measured residual activity of O=C1NC(=O)/C(=C\c2ccc3nccnc3c2)S1 , please.
## Result 88.3

## Task Tell me the measured residual activity of Nc1nnc2[nH]c3ccccc3nc1-2 , please.
## Result 97.9

## Task Tell me the measured residual activity of COc1ccc(CNC(=O)Nc2ncc([N+](=O)[O-])s2)cc1 , please.
## Result 90.5

## Task Tell me the measured residual activity of CCN(CC)CCCCN1c2ccccc2Oc2ccc(Cl)cc21 , please.
## Result 111

## Task Tell me the measured residual activity of Cn1sc(=O)n(Cc2ccccc2)c1=O , please.
## Result 88.7

## Task Tell me the measured residual activity of O=C(Nc1cccc(Nc2cc(Nc3cccc(C(F)(F)F)c3)ncn2)c1)C1CC1 , please.
## Result 95.9

## Task Tell me the measured residual activity of CCn1cnc2c(Nc3cccc(Cl)c3)nc(N[C@@H]3CCCC[C@@H]3N)nc21 , please.
## Result 95.2

## Task Tell me the measured residual activity of CC(=O)O/N=C1\C(=C2\C(=O)Nc3cc(Br)ccc32)Nc2ccccc21 , please.
## Result 76.1

## Task Tell me the measured residual activity of CC(C)c1nn(-c2c(Cl)cccc2Cl)c2nc(Cc3ccc(OCCO)cc3)nc(O)c12 , please.
## Result 97.1

## Task Tell me the measured residual activity of COc1ccc(OC)c2c(=S)c3ccccc3[nH]c12 , please.
## Result 95.9

## Task Tell me the measured residual activity of O=C(CCCc1ccc(-c2ccccc2F)cc1)Nc1ccc(O)cc1 , please.
## Result 97.3

## Task Tell me the measured residual activity of COc1cc2ncnc(N3CCN(C(=O)Nc4ccc(Oc5ccccc5)cc4)CC3)c2cc1OC , please.
## Result 99.6

## Task Tell me the measured residual activity of O=C1Cc2c([nH]c3ccc(Br)cc23)-c2ccccc2N1 , please.
## Result 29.6

## Task Tell me the measured residual activity of Cc1nc2cc3nc(-c4cccs4)cnc3cc2n1C , please.
## Result 98.9

## Task Tell me the measured residual activity of CN(C)C[C@H]1CCn2c(c(C3=C(c4cn(C)c5ccccc45)C(=O)NC3=O)c3ccccc32)C1 , please.
## Result 97.8

## Task Tell me the measured residual activity of O=C1NC(=O)C(c2c[nH]c3ccccc23)=C1c1c[nH]c2ccccc12 , please.
## Result 83.4

## Task Tell me the measured residual activity of O=C1NC(=O)C(c2cn(CCCO)c3ncccc23)=C1c1cnccn1 , please.
## Result 84.8

## Task Tell me the measured residual activity of O=C(O)/C=C/c1cc(Br)c(Br)c(Br)c1Br , please.
## Result 96

## Task Tell me the measured residual activity of Cn1nc2c3c(cccc31)C(=O)c1ccccc1-2 , please.
## Result 92.3

## Task Tell me the measured residual activity of Cn1cnc2cc3c(Nc4cccc(Br)c4)ncnc3cc21 , please.
## Result 82.1

## Task Tell me the measured residual activity of O=C1Nc2ccccc2/C1=C1/Nc2ccccc2/C1=N\OCCC(O)CO (configuration not stated) , please.
## Result 21

###

Target: STK25 (human) (UniProt O00506)
Sequence (O00506 whole entry, looked up): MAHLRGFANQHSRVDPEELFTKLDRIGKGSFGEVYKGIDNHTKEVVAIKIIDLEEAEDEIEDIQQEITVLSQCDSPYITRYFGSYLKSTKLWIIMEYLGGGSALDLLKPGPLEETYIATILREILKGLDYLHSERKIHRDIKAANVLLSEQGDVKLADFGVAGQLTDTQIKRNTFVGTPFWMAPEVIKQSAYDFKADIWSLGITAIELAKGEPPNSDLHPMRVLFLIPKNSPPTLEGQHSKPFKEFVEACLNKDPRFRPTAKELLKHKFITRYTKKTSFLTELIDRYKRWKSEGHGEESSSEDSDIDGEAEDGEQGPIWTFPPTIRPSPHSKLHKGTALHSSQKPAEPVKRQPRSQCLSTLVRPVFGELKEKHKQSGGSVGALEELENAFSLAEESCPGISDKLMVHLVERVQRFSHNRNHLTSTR
Test: radiometric filter-binding kinase assay, Kinase HotSpot
Details: compound 0.5 µM; ATP 10 µM
observed_property: residual activity
Entry format: amount then unit.

## Task Tell me the measured residual activity of COc1cc2ncnc(N3CCN(C(=O)Nc4ccc(Oc5ccccc5)cc4)CC3)c2cc1OC , please.
## Result 100%

## Task Tell me the measured residual activity of O=C1NC(=O)C(c2c[nH]c3ccccc23)=C1c1c[nH]c2ccccc12 , please.
## Result 78.3%

## Task Tell me the measured residual activity of Cn1sc(=O)n(Cc2ccccc2)c1=O , please.
## Result 96.2%

## Task Tell me the measured residual activity of CCn1cnc2c(Nc3cccc(Cl)c3)nc(N[C@@H]3CCCC[C@@H]3N)nc21 , please.
## Result 101%

## Task Tell me the measured residual activity of Cc1nc2cc3nc(-c4cccs4)cnc3cc2n1C , please.
## Result 97.3%

## Task Tell me the measured residual activity of CN([C@@H](Cc1ccc(OS(=O)(=O)c2cccc3cnccc23)cc1)C(=O)N1CCN(c2ccccc2)CC1)S(=O)(=O)c1cccc2cnccc12 , please.
## Result 98.8%

## Task Tell me the measured residual activity of O=C(CCCc1ccc(-c2ccccc2F)cc1)Nc1ccc(O)cc1 , please.
## Result 105%

## Task Tell me the measured residual activity of CN(C)C[C@H]1CCn2c(c(C3=C(c4cn(C)c5ccccc45)C(=O)NC3=O)c3ccccc32)C1 , please.
## Result 96%

## Task Tell me the measured residual activity of COc1ccc(OC)c2c(=S)c3ccccc3[nH]c12 , please.
## Result 96.2%

## Task Tell me the measured residual activity of O=C1NC(=O)C(c2cn(CCCO)c3ncccc23)=C1c1cnccn1 , please.
## Result 78.9%

## Task Tell me the measured residual activity of O=C(Nc1cccc(Nc2cc(Nc3cccc(C(F)(F)F)c3)ncn2)c1)C1CC1 , please.
## Result 97.4%

## Task Tell me the measured residual activity of O=C1Cc2c([nH]c3ccc(Br)cc23)-c2ccccc2N1 , please.
## Result 98.8%

## Task Tell me the measured residual activity of CC(=O)O/N=C1\C(=C2\C(=O)Nc3cc(Br)ccc32)Nc2ccccc21 , please.
## Result 80.9%

## Task Tell me the measured residual activity of Cn1cnc2cc3c(Nc4cccc(Br)c4)ncnc3cc21 , please.
## Result 99%

## Task Tell me the measured residual activity of CCN(CC)CCCCN1c2ccccc2Oc2ccc(Cl)cc21 , please.
## Result 92.6%

## Task Tell me the measured residual activity of Nc1nnc2[nH]c3ccccc3nc1-2 , please.
## Result 99.9%

## Task Tell me the measured residual activity of Cn1nc2c3c(cccc31)C(=O)c1ccccc1-2 , please.
## Result 96.5%

## Task Tell me the measured residual activity of Oc1ccc(Nc2nc(-c3ccc(Cl)cc3)cs2)cc1 , please.
## Result 113%

## Task Tell me the measured residual activity of O=C1Nc2ccccc2/C1=C1\Nc2ccccc2\C1=N/O , please.
## Result 87.5%

## Task Tell me the measured residual activity of O=C1Nc2ccccc2/C1=C1/Nc2ccccc2/C1=N\OCCC(O)CO (configuration not stated) , please.
## Result 74%

## Task Tell me the measured residual activity of COc1ccc(CNC(=O)Nc2ncc([N+](=O)[O-])s2)cc1 , please.
## Result 98.6%

## Task Tell me the measured residual activity of O=C1NC(=O)/C(=C\c2ccc3nccnc3c2)S1 , please.
## Result 99.3%

## Task Tell me the measured residual activity of CC(C)[C@H](CO)Nc1nc(Nc2cc(N)cc(Cl)c2)c2ncn(C(C)C)c2n1 , please.
## Result 81.8%

## Task Tell me the measured residual activity of Nc1nccc(-c2c(-c3ccc(F)cc3)ncn2C2CCNCC2)n1 , please.
## Result 99.8%

## Task Tell me the measured residual activity of COc1cc2ncc(-c3ccccc3)nc2cc1OC , please.
## Result 90.7%

## Task Tell me the measured residual activity of CC(C)c1nn(-c2c(Cl)cccc2Cl)c2nc(Cc3ccc(OCCO)cc3)nc(O)c12 , please.
## Result 68.1%

## Task Tell me the measured residual activity of O=C(O)/C=C/c1cc(Br)c(Br)c(Br)c1Br , please.
## Result 87.2%

###

Target: MAP3K8 (human)
Assay: radiometric filter-binding kinase assay, Kinase HotSpot
Conditions: compound 0.5 µM; ATP 10 µM
observed_property: residual activity (%)
The answer is to be given in %; state only the numeric part.

## Task Tell me the measured residual activity of O=C(O)/C=C/c1cc(Br)c(Br)c(Br)c1Br , please.
## Result 83

## Task Tell me the measured residual activity of Nc1nnc2[nH]c3ccccc3nc1-2 , please.
## Result 81.3

## Task Tell me the measured residual activity of CN(C)C[C@H]1CCn2c(c(C3=C(c4cn(C)c5ccccc45)C(=O)NC3=O)c3ccccc32)C1 , please.
## Result 95

## Task Tell me the measured residual activity of O=C1Nc2ccccc2/C1=C1/Nc2ccccc2/C1=N\OCCC(O)CO (stereo not given) , please.
## Result 123

## Task Tell me the measured residual activity of O=C1NC(=O)C(c2cn(CCCO)c3ncccc23)=C1c1cnccn1 , please.
## Result 97
